Tested on: Providencia rettgeri
experiment: Minimum inhibitory concentration against Providencia rettgeri M-1771
Format: functional
condition_summary: Providencia rettgeri; read-out: MIC
readout_label: MIC (µg/mL)
Return type: number; implicit unit µg/mL.

Need MIC, item NC1CN(c2nc3c(cc2F)c(=O)c(C(=O)O)cn3C2CC2)CC1c1ccc(Cl)c(Cl)c1 (trans isomer) 0.8

Need MIC, item NCc1cccc(C2CN(c3c(F)cc4c(=O)c(C(=O)O)cn(C5CC5)c4c3F)CC2CN)c1 (trans isomer) 3.1

Here's the next entry for you.
Need MIC, item CC(C)c1ccc(C2CN(c3nc4c(cc3F)c(=O)c(C(=O)O)cn4C3CC3)CC2N)cc1 (trans isomer) 1.6

Cited source: ChEMBL document CHEMBL1126564
